# Tested On: wild-type GLP-1R (NP_002053) (Homo sapiens, UniProt P43220)
# Construct: HEK293 cells were transfected with plasmids expressing either wild-type GLP-1R (NP_002053); expressed in transfected cells; host or cells: HEK293
# Sequence (P43220 24-463): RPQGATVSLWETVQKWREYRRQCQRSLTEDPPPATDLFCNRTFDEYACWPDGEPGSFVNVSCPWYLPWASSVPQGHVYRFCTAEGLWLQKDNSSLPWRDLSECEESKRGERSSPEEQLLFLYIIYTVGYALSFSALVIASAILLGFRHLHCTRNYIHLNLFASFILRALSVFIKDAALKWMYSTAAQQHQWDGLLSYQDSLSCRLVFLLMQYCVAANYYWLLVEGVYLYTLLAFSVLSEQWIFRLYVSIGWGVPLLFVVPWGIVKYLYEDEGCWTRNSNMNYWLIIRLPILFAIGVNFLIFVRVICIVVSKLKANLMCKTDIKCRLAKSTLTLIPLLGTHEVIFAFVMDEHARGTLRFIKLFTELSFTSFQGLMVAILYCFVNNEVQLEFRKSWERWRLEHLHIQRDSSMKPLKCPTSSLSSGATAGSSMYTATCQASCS
# Procedure Summary: cAMP accumulation in HEK293 cells transfected with wild-type GLP-1R
# Type: cell-based
# Experimental Setup: IC50, antagonism of GLP-1 induced cAMP accumulation, 100 pM GLP-1, HEK293 cells
# Experimental: cAMP accumulation assays were performed as previously described. […] Figure 4 Changes to HDX of nGLP-1R in the Presence of Peptide and Small Molecule Ligands. […] Deuterium exchange was measured in the presence of DDM/CHS micelles as indicated in the Experimental section The exendin-4[9-39] peptide ligand is colored gray. […]

| Compound | IC50 [nM] |
| --- | --- |
| O=C1c2ncc3c(c2C(O)N1CCN1CCOCC1)c1ccccc1n3Cc1cc(Cl)ccc1Cl (stereo not shown) | 310 |
